Test system: mouse leukemia L-1210 cells
Assay: growth inhibitory activity to cancer cells in vitro (L-1210, 48 hours)
Assay type: cell-based
Details: L1210, 20 mcg/ml, read-out: Growth inhibition (%), (1-T/C) × 100
Note to self: values exactly at 60% are satisfied. So inhibition at 20 µg/mL at or above 60% is satisfied, below is not satisfied.

compound	measurementTarget	assignedClass
COC(NC(=O)C[C@@H](O)CCCCNC(=N)N)C(=O)NCCCCNCCCN (some centres unmarked)	mouse leukemia L-1210 cells	satisfied
COC(NC(=O)CCCNC(=N)N)C(=O)NCCCCNCCCN (centres unmarked)	mouse leukemia L-1210 cells	satisfied
N=C(N)NCCCC[C@H](O)CC(=O)NC(OCCO)C(=O)NCCCCNCCCN (some centres unmarked)	mouse leukemia L-1210 cells	satisfied
N=C(N)NCCCCCCCC(=O)NC(O)C(=O)NCCCCNCCCN (centres unmarked)	mouse leukemia L-1210 cells	not satisfied

* * *

Overview of reported response vs control in vivo at 0.2 mg/kg across a group of molecules:
Tested on: mouse leukemia L-1210
Experiment: therapeutic effect on implanted cancer in mice (L-1210, survival over 30 days)
Assay type: in vivo, mouse (BDF1)
Details: L1210, ip, 720 h, 0.20 mg/kg/day i.p., 6 days, read-out: Prolongation of survival period (%), T/C × 100

molecule	response vs control in vivo at 0.2 mg/kg
COC(NC(=O)CCCCCCNC(=N)N)C(=O)NCCCCNCCCN (single isomer, unassigned; (-)) [Compound 9 (-)]	127%
COC(NC(=O)CCCCCCCCNC(=N)N)C(=O)NCCCCNCCCN (centres unmarked)	107%
N=C(N)NCCCCCCC(O)CC(=O)NC(O)C(=O)NCCCCNCCCN (centres unmarked)	100%
N=C(N)NCCCCCCC=CC(=O)NC(O)C(=O)NCCCCNCCCN (centres unmarked)	136%
N=C(N)NCCCCCCC(=O)NC(O)C(=O)NCCCCNCCCN (centres unmarked)	197%
COC(NC(=O)CCCCCCNC(=N)N)C(=O)NCCCCNCCCN (racemic) [Compound 9]	114%
COC(NC(=O)C=CCCCCNC(=N)N)C(=O)NCCCCNCCCN (centres unmarked)	100%
N=C(N)NCCCCCCCCC(=O)NC(O)C(=O)NCCCCNCCCN (centres unmarked)	> 354%

* * *

Quick reference: remaining at 4 h of the listed items.
Test: chemical stability: retention (%) after heating at 60° C. for 4 hours, by HPLC
Format: physicochemical
Conditions: pH 7, pH 7
assayEndpoint: remaining at 4 h (%)

molecule	quantityUnit	dataValue
N=C(N)NCCCC[C@H](O)CC(=O)NC(OCc1ccccc1)C(=O)NCCCCNCCCN (stereo partly drawn) [Compound 26]	%	100
COC(NC(=O)CCCCCCNC(=N)N)C(=O)NCCCCNCCCN (racemic) [Compound 9]	%	100
CCCCOC(NC(=O)C[C@@H](O)CCCCNC(=N)N)C(=O)NCCCCNCCCN (stereo partly drawn) [Compound 24]	%	100
COC(NC(=O)C[C@@H](O)CCCCNC(=N)N)C(=O)NCCCCNCCCN (single isomer, unassigned; (-)) [22 (-), (-)-11-O-methylspergualin]	%	100
N=C(N)NCCCC[C@H](O)CC(=O)NC(OCCO)C(=O)NCCCCNCCCN (stereo partly drawn) [Compound 25]	%	100
N=C(N)NCCCC[C@H](O)CC(=O)NC(O)C(=O)NCCCCNCCCN (single isomer, unassigned; (-)) [(-)-spergualin, reference compound]	%	12.6

* * *

Experiment: chemical stability: retention (%) after heating at 60° C. for 4 hours, by HPLC
Type: physicochemical
Conditions: pH 2, pH 2

compound	remaining at 4 h
COC(NC(=O)C[C@@H](O)CCCCNC(=N)N)C(=O)NCCCCNCCCN (single isomer, unassigned; (-)) [22 (-), (-)-11-O-methylspergualin]	79.7%
N=C(N)NCCCCCCC(=O)NC(OCCO)C(=O)NCCCCNCCCN (stereo not drawn) [Compound 14]	71.8%
N=C(N)NCCCC[C@H](O)CC(=O)NC(OCc1ccccc1)C(=O)NCCCCNCCCN (stereo partly drawn) [Compound 26]	77.2%
N=C(N)NCCCC[C@H](O)CC(=O)NC(O)C(=O)NCCCCNCCCN (single isomer, unassigned; (-)) [(-)-spergualin, reference compound]	88.1%
N=C(N)NCCCCCCC(=O)NC(OCc1ccccc1)C(=O)NCCCCNCCCN (stereo not drawn) [Compound 15]	76.5%
CCCCOC(NC(=O)C[C@@H](O)CCCCNC(=N)N)C(=O)NCCCCNCCCN (stereo partly drawn) [Compound 24]	76.3%
CCCCOC(NC(=O)CCCCCCNC(=N)N)C(=O)NCCCCNCCCN (stereo not drawn) [Compound 13]	72.4%
N=C(N)NCCCC[C@H](O)CC(=O)NC(OCCO)C(=O)NCCCCNCCCN (stereo partly drawn) [Compound 25]	68.9%
COC(NC(=O)CCCCCCNC(=N)N)C(=O)NCCCCNCCCN (racemic) [Compound 9]	69.3%

* * *

Recorded MTD, one value per entry.
Experiment: cumulative toxicity in mice (maximum tolerated dose, once a day for 6 consecutive days)
Settings: mouse, in vivo, ip, i.p. once a day for 6 consecutive days, total dose, read-out: Maximum Tolerated Dose (total dose not causing death)
assayEndpoint: MTD

molecule	dataValue
N=C(N)NCCCCCC(=O)NC(O)C(=O)NCCCCNCCCN (centres unmarked)	> 300 mg/kg
COC(NC(=O)CCCCCNC(=N)N)C(=O)NCCCCNCCCN (centres unmarked)	> 150 mg/kg
N=C(N)NCCCC[C@H](O)CC(=O)NC(OCc1ccccc1)C(=O)NCCCCNCCCN (some centres unmarked)	> 75 mg/kg
N=C(N)NCCCC[C@H](O)CC(=O)NC(OCCO)C(=O)NCCCCNCCCN (some centres unmarked)	> 300 mg/kg
COC(NC(=O)CCCCCCCNC(=N)N)C(=O)NCCCCNCCCN (centres unmarked)	> 75 mg/kg

* * *

System: mouse leukemia L-1210 cells
Assay: growth inhibitory activity to cancer cells in vitro (L-1210, 48 hours)
Type: cell-based
Conditions: L1210, 1.25 mcg/ml, read-out: Growth inhibition (%), (1-T/C) × 100
Each entry gets Criterion not met if its inhibition at 1.25 µg/mL stays under 20%, and Criterion met if its inhibition at 1.25 µg/mL is 20% or above.

compound	assignedClass
N=C(N)NCCCCCC(O)CC(=O)NC(O)C(=O)NCCCCNCCCN (centres unmarked) [Compound 20]	Criterion not met
COC(NC(=O)CCCNC(=N)N)C(=O)NCCCCNCCCN (centres unmarked) [Compound 7]	Criterion met
N=C(N)NCCCCCC=CC(=O)NC(O)C(=O)NCCCCNCCCN (centres unmarked) [Compound 17]	Criterion not met
N=C(N)NCCCCCC(=O)NC(O)C(=O)NCCCCNCCCN (centres unmarked) [Compound 3]	Criterion met
N=C(N)NCCCCCCCCC(=O)NC(O)C(=O)NCCCCNCCCN (centres unmarked) [Compound 6]	Criterion met
N=C(N)NCCCCC(=O)NC(O)C(=O)NCCCCNCCCN (centres unmarked) [Compound 2]	Criterion not met
COC(NC(=O)C=CCCCCNC(=N)N)C(=O)NCCCCNCCCN (centres unmarked) [Compound 19]	Criterion met
CCCCOC(NC(=O)CCCCCCNC(=N)N)C(=O)NCCCCNCCCN (centres unmarked) [Compound 13]	Criterion not met
N=C(N)NCCCCCCC(O)CC(=O)NC(O)C(=O)NCCCCNCCCN (centres unmarked) [Compound 21]	Criterion not met
N=C(N)NCCCCCCC(=O)NC(OCc1ccccc1)C(=O)NCCCCNCCCN (centres unmarked) [Compound 15]	Criterion met

* * *

Test system: mouse leukemia L-1210
Assay: therapeutic effect on implanted cancer in mice (L-1210, survival over 30 days)
Format: in vivo, mouse (BDF1)
Conditions: L1210, ip, 720 h, 1.56 mg/kg/day i.p., 6 days, read-out: Number of mice survived for 30 days (converted)
assayEndpoint: responders at 1.56 mg/kg (%)

molecule	dataValue
COC(NC(=O)C[C@@H](O)CCCCNC(=N)N)C(=O)NCCCCNCCCN (stereo partly shown) [Compound 22]	0
N=C(N)NCCCCCCC(O)CC(=O)NC(O)C(=O)NCCCCNCCCN (stereo not shown) [Compound 21]	0
N=C(N)NCCCCCCCC(=O)NC(O)C(=O)NCCCCNCCCN (stereo not shown) [Compound 5]	0
COC(NC(=O)C=CCCCCNC(=N)N)C(=O)NCCCCNCCCN (stereo not shown) [Compound 19]	50
N=C(N)NCCCCCCCCC(=O)NC(O)C(=O)NCCCCNCCCN (stereo not shown) [Compound 6]	75
COC(NC(=O)CCCCCCNC(=N)N)C(=O)NCCCCNCCCN (single isomer, unassigned; (-)) [Compound 9 (-)]	50
COC(NC(=O)CCCCCCNC(=N)N)C(=O)NCCCCNCCCN (racemic) [Compound 9]	25
N=C(N)NCCCCC=CC(=O)NC(O)C(=O)NCCCCNCCCN (stereo not shown) [Compound 16]	0
COC(NC(=O)CCCCCCCCNC(=N)N)C(=O)NCCCCNCCCN (stereo not shown) [Compound 11]	0
N=C(N)NCCCCCCC=CC(=O)NC(O)C(=O)NCCCCNCCCN (stereo not shown) [Compound 18]	75
COC(NC(=O)CCCCCCCNC(=N)N)C(=O)NCCCCNCCCN (stereo not shown) [Compound 10]	0
COC(NC(=O)C[C@@H](O)CCCCNC(=N)N)C(=O)NCCCCNCCCN (single isomer, unassigned; (-)) [22 (-), (-)-11-O-methylspergualin]	0
N=C(N)NCCCCCCC(=O)NC(O)C(=O)NCCCCNCCCN (stereo not shown) [Compound 4]	100
